Sourced from patent US20250346673A1

Biological target: T1, human BDCA2 (human, UniProt Q8WTT0 1-213)
T1 sequence (looked up): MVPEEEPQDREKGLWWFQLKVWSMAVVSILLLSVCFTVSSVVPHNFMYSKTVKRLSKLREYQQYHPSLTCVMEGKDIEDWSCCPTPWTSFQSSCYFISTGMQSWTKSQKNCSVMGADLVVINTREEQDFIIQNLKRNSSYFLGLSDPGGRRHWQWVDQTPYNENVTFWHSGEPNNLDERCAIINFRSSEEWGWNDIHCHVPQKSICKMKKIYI
Experiment: cell-based or functional assay
assay_metric: IC50, inhibition of IFNα secretion, CpG-A stimulated human PBMC (nM)

>>> assay_value("mab024c (antibody, V domains shown) VH: EVQLVESGGDLVKPGGSLKLSCAASGFTFSSFGMSWVRQTPDKRLDWVATISSGDSYTYYPDSVKGRFSISRDNAKNTLYLQMSSLKSEDTAVYYCARQIYYDYAYYFDYWGQGTTLTVSS VL: DIVLTQSPASLAVSLGQRATISCRASESVSFRSSHLMHWYRQKPGQPPKLLIYAASNLESGVPARFSGSGSETDFTLNIHPVEEEDAAAYFCQQSIEDPPTFGGGTKLEIK")
0.0168
>>> assay_value("mab030c (antibody, V domains shown) VH: DVQLQESGPGLVKPSQSLSLTCSVTGYSITSAYYWNWIRQFPGNKLECMGYISYDGSNYYNPSLKNRISITRDTSKNQFFLSLNSVTTEDTATYFCVRGGDYDDGGFAYWGQGTLVTVSA VL: DIQMTQSPASLSASVGETVTITCRASGNIHNYLAWYQQKQGKSPQLLVYNAKTLADGVPSRFSGSGSETQYSLKINSLQPEDFGNYFCQHFWIIPYTFGGGTKLEIK")
0.0164
>>> assay_value("mab005c (antibody, V domains shown) VH: QVQLKQSGPGLVQPSQSLSITCTVSGFSLTNYGVHWVRQSPGKGLEWLGVIWSGESTDYDAAFISRLSISKDNSKSQVFFKMNSLQADDSAIYYCARRRSHYYGYVMDYWGQGTSVTVSS VL: DIVLTQSPASLAVSLGQRATISCKASQSIDYDGIGYLNWYQHKPGQPPKLLIYAASNLESGIPARFSGSGSGTDFTLNIHPVEEEDAATYYCQQSNEDPPTFGSGTKLEIK")
0.00836
